# Test system: MCF7 (ARE/MMP)
# conditions-used: MMP bioassay cytotoxicity; dosing range all
result-type: IC10, linear transformed

Here are 2 compounds together with their reported answers.
{"compound": "Oc1ccc(C(c2ccc(O)cc2)(C(F)(F)F)C(F)(F)F)cc1", "experimental-target": "MCF7 (ARE/MMP)", "IC10, linear transformed": "2.72E-05"}
{"compound": "CC(C)(c1ccc(O)c(-c2ccccc2)c1)c1ccc(O)c(-c2ccccc2)c1 [BPPH, 2,2-Bis(2-hydroxy-5-biphenylyl)propane]", "experimental-target": "MCF7 (ARE/MMP)", "IC10, linear transformed": "7.75E-06"}

Req: IC10, linear transformed for COC(=O)C(c1ccc(O)cc1)c1ccc(O)cc1 [Bz, Methyl bis(4-hydroxyphenyl)acetate] ?
Resp: 3.45E-04

Req: IC10, linear transformed for O=S(=O)(c1ccc(O)cc1)c1ccc(O)cc1 ?
Resp: 1.22E-03

Req: IC10, linear transformed for Oc1ccc(C2(c3ccc(O)cc3)CCCCC2)cc1 [BPZ, 1,1'-Bis(4-hydroxyphenyl)cyclohexane] ?
Resp: 3.28E-05

Req: IC10, linear transformed for Oc1ccc(Cc2ccc(O)cc2)cc1 [BPF, Bis(4-hydroxyphenyl)methane] ?
Resp: 5.26E-04

Req: IC10, linear transformed for CC(C)c1cc(C(C)(C)c2ccc(O)c(C(C)C)c2)ccc1O ?
Resp: 8.72E-06
